Biological target: von Willebrand factor full length (Homo sapiens, UniProt P04275 SEQ:764-2813)
Test: filter; 51% bound at 100 nM
Conditions: tags: Calbiochem 681300
pKd: −log10 of the molar value.

>  <BINDER>
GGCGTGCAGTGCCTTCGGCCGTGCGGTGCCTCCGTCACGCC (ssDNA, 2'-OMe at 39; 3'-idT) [ARC1232]

>  <pKd>
9.00

$$$$

src = patent US20060264369
